The values you see were collected from ChEMBL document CHEMBL4043192.

Test Name: Inhibition of HCV genotype 3a NS5B RNA dependent RNA polymerase assessed as reduction in [33P]-labeled nucleotide incorporation in to RNA template after 2 hrs by liquid scintillation counting method
Set-up: species or system Hepatitis C virus subtype 3a
Result Type: IC50 (nM)
The response must be a number in nM with no trailing unit.

Input: Consider the molecule `C[C@@]1(Cl)[C@H](O)[C@@H](COP(=O)(O)OP(=O)(O)OP(=O)(O)O)O[C@H]1n1ccc(=O)[nH]c1=O` and give its measured IC50.
Output: 160

###

Test Name: Inhibition of human DNA polymerase gamma
Result Type: IC50 (µM)
Write down the numeric answer in µM and omit the unit.

Input: Request the reported IC50 associated with C[C@@]1(Cl)[C@H](O)[C@@H](COP(=O)(O)OP(=O)(O)OP(=O)(O)O)O[C@H]1n1ccc(=O)[nH]c1=O [4A-TP]
Output: 95
